- TARGET_OR_SYSTEM: FAAH (Mus musculus, UniProt O08914)
- ASSAY_COMMENT: In vitro competitive activity-based protein profiling (FP-Rh), mouse FAAH
- Type: biochemical
- Parameters: from tissue; host or cells: mouse brain membrane fraction
- CONDITION_DETAILS: Table 2, mouse proteome, 30 min preincubation at 37° C.
- Description: In Vitro Competitive Activity-Based Protein Profiling. Proteomes (mouse brain membrane fraction or cell lysates) (50 μL, 1.0 mg/ml total protein concentration) were preincubated with varying concentrations of inhibitors at 37° C. After 30 min, FP-Rh (1.0 μL, 50 μM in DMSO) was added and the mixture was incubated for another 30 min at 37° C. Reactions were quenched with SDS loading buffer (50 μL—4×) and run on SDS-PAGE.
PROPERTY_NAME: IC50

Below, each entry is followed by its recorded IC50 result.
> print(dat)
                                test.smiles            result
1  Cc1nn(-c2ccccc2)cc1CN1CCN(C(=O)ON2C(=O)CCC2=O)CC1  1000 to 10000 nM
2  O=C(ON1C(=O)CCC1=O)N1CCN(Cc2ccc(-c3ccccc3)cc2C(=O)N2CCCC2)CC1        > 10000 nM
3  Cc1ccc(CN2CCN(C(=O)ON3C(=O)CCC3=O)CC2)cc1  1000 to 10000 nM

Next molecule, please.
Input line: Look at this molecule and give its reported IC50. O=C1COc2ccc(CN3CCN(C(=O)ON4C(=O)CCC4=O)CC3)cc2N1
Output line: > 10000 nM

* * *

- TARGET_OR_SYSTEM: FAAH (Mus musculus, UniProt O08914)
- Sequence (O08914 1-579): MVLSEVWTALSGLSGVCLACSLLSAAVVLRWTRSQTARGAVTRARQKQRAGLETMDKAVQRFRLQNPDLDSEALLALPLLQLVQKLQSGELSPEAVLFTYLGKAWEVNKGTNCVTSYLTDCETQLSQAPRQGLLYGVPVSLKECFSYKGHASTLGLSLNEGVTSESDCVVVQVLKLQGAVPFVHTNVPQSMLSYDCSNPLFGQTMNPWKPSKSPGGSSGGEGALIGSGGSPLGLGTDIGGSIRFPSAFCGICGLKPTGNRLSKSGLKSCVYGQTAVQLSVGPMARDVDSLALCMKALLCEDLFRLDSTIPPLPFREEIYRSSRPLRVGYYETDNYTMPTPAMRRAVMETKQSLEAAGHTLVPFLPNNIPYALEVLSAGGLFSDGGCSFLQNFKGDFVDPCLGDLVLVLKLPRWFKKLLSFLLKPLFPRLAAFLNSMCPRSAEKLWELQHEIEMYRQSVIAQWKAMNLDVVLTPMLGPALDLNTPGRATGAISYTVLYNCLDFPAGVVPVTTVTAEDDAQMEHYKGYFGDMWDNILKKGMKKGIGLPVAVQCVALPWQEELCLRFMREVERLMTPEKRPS
- ASSAY_COMMENT: In vitro competitive activity-based protein profiling (FP-Rh), mouse FAAH
- Format: biochemical
- Design: from tissue; host or cells: mouse brain membrane fraction
- CONDITION_DETAILS: Table 2, mouse proteome, 30 min preincubation at 37° C.
PROPERTY_NAME: IC50

> print(dat)
                                test.smiles                     target.or.system      result
1  Cc1nc2ccc(Cl)cn2c1CN1CCN(C(=O)ON2C(=O)CCC2=O)CC1  FAAH (Mus musculus, UniProt O08914)  > 10000 nM
2  O=C(ON1C(=O)CCC1=O)N1CCN(Cc2ccc(C(F)(F)F)cc2N2CCOCC2)CC1  FAAH (Mus musculus, UniProt O08914)  > 10000 nM
3  Cc1cc(Cl)ccc1C(c1ccc(Cl)cc1C)N1CCN(C(=O)ON2C(=O)CCC2=O)CC1  FAAH (Mus musculus, UniProt O08914)  > 10000 nM

Input line: Entry O=C(ON1C(=O)CCC1=O)N1CCN(Cc2ccc(-n3cccn3)c(F)c2)CC1 , system FAAH (Mus musculus, UniProt O08914): what IC50 was measured?
Output line: > 10000 nM

Input line: Would you mind doing O=C(ON1C(=O)CCC1=O)N1CCN(Cc2ccc(Br)cc2N2CCOCC2)CC1 as well?
Output line: 1000 to 10000 nM

Input line: // same read-out, input: O=C(ON1C(=O)CCC1=O)N1CCN(Cc2ccc(Br)cc2N2CCCCC2)CC1
Output line: 1000 to 10000 nM

Input line: Same question for O=C(ON1C(=O)CCC1=O)N1CCN(Cc2cccc(F)c2N2CCCC2)CC1 please.
Output line: > 10000 nM

Input line: Let us now turn to O=C(ON1C(=O)CCC1=O)N1CCN(C(c2cocn2)c2cocn2)CC1
Output line: 1000 to 10000 nM

* * *

- TARGET_OR_SYSTEM: UniProt:Q8R2Y0
- Sequence (Q8R2Y0 1-336): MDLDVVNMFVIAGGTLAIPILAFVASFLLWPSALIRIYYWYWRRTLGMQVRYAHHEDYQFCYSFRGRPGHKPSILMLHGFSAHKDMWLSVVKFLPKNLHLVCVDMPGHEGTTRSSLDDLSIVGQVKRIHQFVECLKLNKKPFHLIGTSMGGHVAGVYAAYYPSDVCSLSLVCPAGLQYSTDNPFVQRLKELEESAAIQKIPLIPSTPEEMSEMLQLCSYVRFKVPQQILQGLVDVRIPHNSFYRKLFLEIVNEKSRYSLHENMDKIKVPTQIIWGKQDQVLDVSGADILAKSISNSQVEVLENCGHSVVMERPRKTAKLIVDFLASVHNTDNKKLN
- ASSAY_COMMENT: In vitro competitive activity-based protein profiling (FP-Rh), mouse ABHD6
- Assay type: biochemical
- Set-up: from tissue; host or cells: mouse brain membrane fraction
- CONDITION_DETAILS: Table 2, mouse proteome, 30 min preincubation at 37° C.
PROPERTY_NAME: IC50

> print(dat)
                                   molecule  property.name            result
1  Cc1nc(N2CCCCC2)sc1CN1CCN(C(=O)ON2C(=O)CCC2=O)CC1 [Example 148]           IC50  1000 to 10000 nM
2  O=C(ON1C(=O)CCC1=O)N1CCN(Cc2ccc(Cl)cc2N2CCCCC2)CC1 [Example 129]           IC50    100 to 1000 nM
3  O=C(ON1C(=O)CCC1=O)N1CCN(Cc2cccc(N3CCCCC3)c2)CC1 [Example 133]           IC50          < 100 nM

Input line: Given the molecule O=C(ON1C(=O)CCC1=O)N1CCN(Cc2ccc(Br)cc2N2CCCCC2)CC1 [Example 65] , what is its reported IC50?
Output line: 100 to 1000 nM

Input line: And what about the molecule COc1ccc(CN2CCN(C(=O)ON3C(=O)CCC3=O)CC2)cc1 [Example 70] ?
Output line: 1000 to 10000 nM

Input line: Now consider Cc1c(CN2CCN(C(=O)ON3C(=O)CCC3=O)CC2)cccc1N1CCCC1 [Example 123] and answer again.
Output line: 100 to 1000 nM

Input line: Field entry: O=C(ON1C(=O)CCC1=O)N1CCN(Cc2ccc(Cl)cc2-n2cccn2)CC1 [Example 84]
Output line: 1000 to 10000 nM

Input line: Same read-out for O=C(ON1C(=O)CCC1=O)N1CCN(Cc2ccc(N3CCOCC3)cc2F)CC1 [Example 62] ?
Output line: 1000 to 10000 nM

Input line: Next molecule: O=C(ON1C(=O)CCC1=O)N1CCN(Cc2ccc(Cl)cc2N2CCOCC2)CC1 [Example 69]
Output line: 100 to 1000 nM

Input line: Repeat for the following molecule: O=C(ON1C(=O)CCC1=O)N1CCN(Cc2c(Cl)cccc2N2CCCC2)CC1 [Example 97]
Output line: 100 to 1000 nM

Input line: Then this molecule: COc1cc(N2CCOCC2)ccc1CN1CCN(C(=O)ON2C(=O)CCC2=O)CC1 [Example 67]
Output line: 1000 to 10000 nM

Input line: Lookup Cn1nc(-c2ccccc2)cc1CN1CCN(C(=O)ON2C(=O)CCC2=O)CC1 [Example 139]
Output line: 100 to 1000 nM

* * *

- TARGET_OR_SYSTEM: MAGL (Mus musculus, UniProt O35678)
- Sequence (O35678 whole entry): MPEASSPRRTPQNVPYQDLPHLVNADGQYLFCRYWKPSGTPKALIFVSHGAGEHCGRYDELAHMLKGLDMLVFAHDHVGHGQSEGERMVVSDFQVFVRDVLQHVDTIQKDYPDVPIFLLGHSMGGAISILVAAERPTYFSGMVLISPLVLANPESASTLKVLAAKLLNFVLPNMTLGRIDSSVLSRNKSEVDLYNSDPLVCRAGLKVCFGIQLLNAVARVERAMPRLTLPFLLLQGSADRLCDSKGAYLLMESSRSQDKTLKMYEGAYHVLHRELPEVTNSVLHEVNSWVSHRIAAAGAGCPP
- ASSAY_COMMENT: In vitro competitive ABPP, % inhibition at fixed concentration, MAGL
- Assay type: biochemical
- Parameters: from tissue
- Protocol: In Vitro Competitive Activity-Based Protein Profiling. Proteomes (mouse brain membrane fraction or cell lysates) (50 μL, 1.0 mg/ml total protein concentration) were preincubated with varying concentrations of inhibitors at 37° C. […] Following gel imaging, serine hydrolase activity was determined by measuring fluorescent intensity of gel bands corresponding to MAGL, ABHD6 and FAAH using ImageJ 1.43u software.
Entries and their measured inhibition at 1 µM follow.

Look over these answered cases.
> print(dat)
                                test.smiles       property.name     result
1   CS(=O)(=O)N1CCN(C(=O)ON2C(=O)CCC2=O)CC1  inhibition at 1 µM  25 to 75%
2  O=C(ON1C(=O)CCC1=O)N1CCN(Cc2ccc(Cl)cc2C(=O)N2CCCC2)CC1  inhibition at 1 µM  25 to 75%
3  O=C(ON1C(=O)CCC1=O)N1CCN(Cc2ccc(N3CCOCC3)cc2OC(F)(F)F)CC1  inhibition at 1 µM      > 75%
4  Cc1cccc(-c2ccc(CN3CCN(C(=O)ON4C(=O)CCC4=O)CC3)c(C)c2)n1  inhibition at 1 µM  25 to 75%
5  O=C(ON1C(=O)CCC1=O)N1CCN(Cc2cc(-c3ccccc3)on2)CC1  inhibition at 1 µM  25 to 75%
6  O=C(ON1C(=O)CCC1=O)N1CCN(Cc2ccc(C(=O)N3CCOCC3)cc2Cl)CC1  inhibition at 1 µM  25 to 75%
7  Cn1ncc(Br)c1CN1CCN(C(=O)ON2C(=O)CCC2=O)CC1  inhibition at 1 µM  25 to 75%
8  Cc1cc(CN2CCN(C(=O)ON3C(=O)CCC3=O)CC2)n(C(C)C)n1  inhibition at 1 µM  25 to 75%

Input line: Item O=C(ON1C(=O)CCC1=O)N1CCN(Cc2cnc3ccccn23)CC1 with MAGL (Mus musculus, UniProt O35678) - inhibition at 1 µM?
Output line: < 25%

Input line: Next entry: Cc1nc(CN2CCN(C(=O)ON3C(=O)CCC3=O)CC2)ccc1-c1ccccc1F
Output line: 25 to 75%

Input line: Also O=C(ON1C(=O)CCC1=O)N1CCN(C(c2ccc3c(c2)OCO3)c2ccc3c(c2)OCO3)CC1 ?
Output line: 25 to 75%
